All figures here come from ChEMBL document CHEMBL2440062.

- Study system: DNA polymerase lambda (Homo sapiens)
- Protocol notes: Inhibition of human recombinant full length DNA polymerase lambda TdT-like activity using [3H]dNTP as substrate after 10 mins by scintillation counting analysis
Can you tell me ID50 for the items I'm about to list?
Give bare numbers, in µM.

Recorded results for 2 compounds are shown here.
# Smiles notation, Study system, Readout type, Recorded result
measured = [
    ("C/C=C/Cn1cc(/C=C/C(=O)CC(=O)C(=O)O)c2ccccc21", "DNA polymerase lambda (Homo sapiens)", "ID50", 5),
    ("O=C(/C=C/c1cn(-c2ccccc2)c2ccccc12)CC(=O)C(=O)O", "DNA polymerase lambda (Homo sapiens)", "ID50", 2),
]

Reported ID50 ( `O=C(/C=C/c1cn(CC(=O)N2CCOCC2)c2ccccc12)CC(=O)C(=O)O` ) = 40

---

Can you tell me ID50 for the items I'm about to list?
- Study system: UniProt P04053
- Protocol notes: Inhibition of human recombinant TdT using [3H]dNTP as substrate after 10 mins by scintillation counting analysis

I'm hoping you can list ID50 for every molecule here, please.
1. O=C(/C=C/c1cn(CC(=O)N2CCOCC2)c2ccccc12)CC(=O)C(=O)O
2. CCOC(=O)C(=O)CC(=O)/C=C/c1cn(Cc2ccc(Cl)cc2)c2ccccc12
3. CCOC(=O)C(=O)CC(=O)/C=C/c1cn(Cc2ccc(O)cc2)c2ccccc12
4. CC(C)=Cn1cc(/C=C/C(=O)CC(=O)C(=O)O)c2ccccc21

1: 24 µM; 2: 40 µM; 3: 40 µM; 4: 13.8 µM

I'm hoping you can list ID50 for every molecule here, please.
1. O=C(/C=C/c1cn(-c2ccc(Cl)cc2)c2ccccc12)CC(=O)C(=O)O
2. CCOC(=O)C(=O)CC(=O)/C=C/c1cn(Cc2ccc(C#N)cc2)c2ccccc12
3. CCCCn1cc(/C=C/C(=O)CC(=O)C(=O)OCC)c2ccccc21
4. O=C(/C=C/c1cc(C(=O)c2ccccc2F)c[nH]1)CC(=O)C(=O)O
5. CCOC(=O)C(=O)CC(=O)/C=C/c1cc(C(=O)c2ccccc2)cn1Cc1ccccc1
6. CCOC(=O)C(=O)CC(=O)/C=C/c1cc(C(=O)c2ccccc2F)c[nH]1
7. CCOC(=O)C(=O)CC(=O)/C=C/c1cc(C(=O)c2ccc(C#N)cc2)c[nH]1
8. CCOC(=O)C(=O)CC(=O)/C=C/c1cc(C(=O)c2cccc(F)c2)c[nH]1

["31 µM", "> 40 µM", "> 40 µM", "1.7 µM", "> 40 µM", "20 µM", "4.7 µM", "6 µM"]

I'm hoping you can list ID50 for every molecule here, please.
1. O=C(/C=C/c1cc(C(=O)c2ccccc2)cn1Cc1ccccc1)CC(=O)C(=O)O
2. CCOC(=O)C(=O)CC(=O)/C=C/c1cn(-c2ccc(Cl)cc2)c2ccccc12
3. CCOC(=O)C(=O)CC(=O)/C=C/c1cc(C(=O)c2ccccc2)cn1Cc1ccc(C#N)cc1
4. CCOC(=O)C(=O)CC(=O)/C=C/c1cn(Cc2ccc(OC)cc2)c2ccccc12
5. CCCn1cc(/C=C/C(=O)CC(=O)C(=O)O)c2ccccc21
6. C=C(C)Cn1cc(/C=C/C(=O)CC(=O)C(=O)OCC)c2ccccc21
7. CCOC(=O)C(=O)CC(=O)/C=C/c1cn(Cc2ccc(F)cc2)c2ccccc12
8. CCOC(=O)C(=O)CC(=O)/C=C/c1cn(CC(=O)N2CCOCC2)c2ccccc12

["16 µM", "> 40 µM", "> 40 µM", "> 40 µM", "3.1 µM", "> 40 µM", "> 40 µM", "> 40 µM"]

I'm hoping you can list ID50 for every molecule here, please.
1. CCOC(=O)C(=O)CC(=O)/C=C/c1cn(CC(=O)N(C)C)c2ccccc12
2. O=C(/C=C/c1cc(C(=O)c2ccc(F)cc2)c[nH]1)CC(=O)C(=O)O
3. CC(C)CCn1cc(/C=C/C(=O)CC(=O)C(=O)O)c2ccccc21
4. O=C(/C=C/c1cn(Cc2ccc(Cl)cc2)c2ccccc12)CC(=O)C(=O)O
5. COc1ccc(Cn2cc(/C=C/C(=O)CC(=O)C(=O)O)c3ccccc32)cc1
6. O=C(/C=C/c1cn(-c2ccc(O)cc2)c2ccccc12)CC(=O)C(=O)O
7. O=C(/C=C/c1cc(C(=O)c2ccccc2)cn1Cc1ccc(F)cc1)CC(=O)C(=O)O

["> 40 µM", "0.58 µM", "16.3 µM", "10 µM", "10 µM", "5.2 µM", "9.5 µM"]

---

Can you tell me ID50 for the items I'm about to list?
- Study system: DNA nucleotidylexotransferase (Homo sapiens, UniProt P04053)
- Sequence (P04053 whole entry): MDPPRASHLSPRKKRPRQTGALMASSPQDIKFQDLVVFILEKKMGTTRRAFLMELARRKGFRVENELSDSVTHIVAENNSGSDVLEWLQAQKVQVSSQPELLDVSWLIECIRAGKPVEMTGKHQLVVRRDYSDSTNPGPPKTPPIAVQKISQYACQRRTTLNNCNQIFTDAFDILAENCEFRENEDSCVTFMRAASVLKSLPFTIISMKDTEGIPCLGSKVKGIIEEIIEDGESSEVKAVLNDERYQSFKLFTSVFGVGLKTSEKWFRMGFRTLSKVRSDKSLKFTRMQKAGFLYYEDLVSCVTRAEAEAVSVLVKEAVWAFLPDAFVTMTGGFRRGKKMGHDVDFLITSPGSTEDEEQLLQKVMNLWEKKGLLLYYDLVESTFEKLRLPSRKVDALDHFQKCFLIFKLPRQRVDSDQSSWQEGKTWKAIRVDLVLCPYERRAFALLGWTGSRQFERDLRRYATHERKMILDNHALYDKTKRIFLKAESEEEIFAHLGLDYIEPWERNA
- Protocol notes: Inhibition of human recombinant TdT using [3H]dNTP as substrate after 10 mins by scintillation counting analysis

Recorded results for 3 molecules are shown here.
# Smiles notation, Study system, ID50
rows = [
    ("CCOC(=O)C(=O)CC(=O)/C=C/c1cn(-c2ccc(O)cc2)c2ccccc12", "DNA nucleotidylexotransferase (Homo sapiens, UniProt P04053)", "> 40 µM"),
    ("C/C=C/Cn1cc(/C=C/C(=O)CC(=O)C(=O)OCC)c2ccccc21", "DNA nucleotidylexotransferase (Homo sapiens, UniProt P04053)", "> 40 µM"),
    ("O=C(/C=C/c1cn(-c2ccccc2)c2ccccc12)CC(=O)C(=O)O", "DNA nucleotidylexotransferase (Homo sapiens, UniProt P04053)", "47 µM"),
]

I'm hoping you can list ID50 for every molecule here, please.
1. C/C=C/n1cc(/C=C/C(=O)CC(=O)C(=O)OCC)c2ccccc21
2. CCOC(=O)C(=O)CC(=O)/C=C/c1cn(Cc2ccccc2)c2ccccc12
3. C/C=C/n1cc(/C=C/C(=O)CC(=O)C(=O)O)c2ccccc21
4. C=C(C)Cn1cc(/C=C/C(=O)CC(=O)C(=O)O)c2ccccc21
5. CCOC(=O)C(=O)CC(=O)/C=C/c1cn(CCC(C)C)c2ccccc12
6. CCCn1cc(/C=C/C(=O)CC(=O)C(=O)OCC)c2ccccc21

["> 40 µM", "> 40 µM", "33 µM", "2.5 µM", "> 40 µM", "> 40 µM"]

---

- Study system: UniProt P06746
- Protocol notes: Inhibition of human recombinant DNA polymerase beta
pIC50: −log10 of the molar value.
Can you tell me pIC50 for the items I'm about to list?

Recorded results for 2 compounds are shown here.
# Smiles notation, Recorded result
data = [
    ("C=C(C)Cn1cc(/C=C/C(=O)CC(=O)C(=O)O)c2ccccc21", "< 4.40"),
    ("CN(C)C(=O)Cn1cc(/C=C/C(=O)CC(=O)C(=O)O)c2ccccc21", "< 4.40"),
]

Now consider a different compound.
Reported pIC50 ( `CCOC(=O)C(=O)CC(=O)/C=C/c1cn(-c2ccc(Cl)cc2)c2ccccc12` ) = < 4.40

---

- Study system: DNA polymerase lambda (Homo sapiens)
- Protocol notes: Inhibition of human recombinant full length DNA polymerase lambda TdT-like activity using [3H]dNTP as substrate after 10 mins by scintillation counting analysis
Can you tell me ID50 for the items I'm about to list?

# Smiles notation, ID50
measured = [
    ("N#Cc1ccc(C(=O)c2c[nH]c(/C=C/C(=O)CC(=O)C(=O)O)c2)cc1", "40 µM"),
    ("O=C(/C=C/c1cn(-c2ccc(O)cc2)c2ccccc12)CC(=O)C(=O)O", "> 40 µM"),
    ("CCOC(=O)C(=O)CC(=O)/C=C/c1cc(C(=O)c2ccc(F)cc2)c[nH]1", "> 40 µM"),
]

I'm hoping you can list ID50 for every compound here, please.
1. CCOC(=O)C(=O)CC(=O)/C=C/c1cc(C(=O)c2ccccc2)cn1Cc1ccccc1
2. CCOC(=O)C(=O)CC(=O)/C=C/c1cn(C=C(C)C)c2ccccc12
3. N#Cc1ccc(Cn2cc(/C=C/C(=O)CC(=O)C(=O)O)c3ccccc32)cc1
4. CCOC(=O)C(=O)CC(=O)/C=C/c1cn(-c2ccccc2)c2ccccc12
5. CC(C)CCn1cc(/C=C/C(=O)CC(=O)C(=O)O)c2ccccc21

["> 40 µM", "> 40 µM", "34 µM", "> 40 µM", "> 40 µM"]

I'm hoping you can list ID50 for every compound here, please.
1. O=C(/C=C/c1cc(C(=O)c2ccccc2)cn1Cc1ccccc1)CC(=O)C(=O)O
2. CCOC(=O)C(=O)CC(=O)/C=C/c1cn(CC(=O)N(C)C)c2ccccc12

20 µM
> 40 µM

---

- Study system: DNA nucleotidylexotransferase (Homo sapiens, UniProt P04053)
- Protocol notes: Competitive inhibition of human TdT using TTP as substrate
Can you tell me Ki for the items I'm about to list?
One number for each entry, in nM.

Recorded results for 2 compounds are shown here.
# Smiles notation, Recorded result
measured = [
    ("O=C(/C=C/c1cc(C(=O)c2ccccc2F)c[nH]1)CC(=O)C(=O)O", 500),
    ("O=C(/C=C/c1cn(Cc2ccc(O)cc2)c2ccccc12)CC(=O)C(=O)O", 450),
]

Reported Ki ( `CCOC(=O)C(=O)CC(=O)/C=C/c1cc(C(=O)c2ccc(C#N)cc2)c[nH]1` ) = 1500
